pKi: −log10 of the molar value.
For Melanocortin receptor 5 (Homo sapiens), measured pKi is reported for the entries below.
measurement_type: pKi

[I] O=C(N[C@H](Cc1ccc(Cl)cc1)C(=O)N1CCN(c2ccccc2)CC1)C1Cc2ccccc2CN1 (some centres undefined)
[II] O=C(N[C@H](Cc1ccc(Cl)cc1)C(=O)N1CCN(C2CCCCC2)CC1)C1Cc2ccccc2CN1 (some centres undefined)
[III] O=C(N[C@H](Cc1ccc(Cl)cc1)C(=O)N1CC[N+]([O-])(C2CCCCC2)CC1)C1Cc2ccccc2CN1 (some centres undefined)
Request: Lab note: pKi ranking, ascending, for the listed molecules. Output spec: a listing of the labels in the requested order.
Response: III, I, II
(III: 3.99, I: 4.77, II: 5.09)

====

Parameter pKi, tested on UniProtKB P32245, listed per item.
Sequence (P32245 whole entry): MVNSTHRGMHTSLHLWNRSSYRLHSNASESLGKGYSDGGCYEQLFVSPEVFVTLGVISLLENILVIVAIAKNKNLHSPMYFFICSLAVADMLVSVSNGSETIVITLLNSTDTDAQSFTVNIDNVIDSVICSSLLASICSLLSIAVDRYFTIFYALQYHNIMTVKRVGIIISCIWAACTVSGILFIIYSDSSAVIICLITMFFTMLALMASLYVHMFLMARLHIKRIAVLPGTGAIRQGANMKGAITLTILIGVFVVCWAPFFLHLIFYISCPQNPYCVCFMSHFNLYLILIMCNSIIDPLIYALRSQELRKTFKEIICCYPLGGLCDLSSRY
pKi: −log10 of the molar value.
measurement_type: pKi

# compound, system, measured_value
data = [
    ("O=C(N[C@H](Cc1ccc(Cl)cc1)C(=O)N1CCN(C2(Cn3cncn3)CCCCC2)CC1)C1Cc2ccccc2CN1 (stereo partly drawn)", "UniProtKB P32245", 6.00),
]

[I] O=C(N[C@H](Cc1ccc(Cl)cc1)C(=O)N1CCN(C2CCCCC2)CC1)C1Cc2ccccc2CN1 (stereo partly drawn)
[II] O=C(N[C@H](Cc1ccc(Cl)cc1)C(=O)N1CC[N+]([O-])(C2CCCCC2)CC1)C1Cc2ccccc2CN1 (stereo partly drawn)
Request: Just tell me: smaller pKi value, I or II ? Reply with the label of the item you choose.
Response: II
